Where do the numbers come from? From ChEMBL document CHEMBL6182883.

# assay_notes: Oral bioavailability in SD […] at 10 mg/kg
# Format: ADME, organism-based
# recorded_conditions: in vivo

{"smiles_notation": "O=C(O)c1cc(NS(=O)(=O)CCc2ccc(C(F)(F)F)cc2)cc(-c2ccc(C3CCNCC3)cc2)c1", "bioavailability (%)": 44}
